Listed here are molecules together with their documented inhibition.
tested on: Candida albicans; assay: Inhibition of wild type Candida albicans Fructose-1,6-Bisphosphate Aldolase transfected in Escherichia coli BL21 (DE3) at 50 uM incubated for 3 mins in presence of NADH by spectrophotometric analysis relative to control

substanceSmiles	resultComparator	inhibition (%)
O=c1[nH]sc2ccccc12	<	50
CC(C)C[C@H](NC(=O)[C@H](Cc1ccccc1)NC(=O)c1cnccn1)B(O)O	=	-0.52
O=c1c2ccccc2sn1S(=O)(=O)c1ccccc1	<	50
C[C@@H]1O[C@@H]1P(=O)(O)O	=	0.32
CCCCCCNC(=O)n1cc(F)c(=O)[nH]c1=O	=	62.2
CC(=O)Nc1ccc(S(=O)(=O)n2sc3ccccc3c2=O)cc1	<	50
COC(=O)/C=C/C(=O)OC	=	0.58

====

tested on: Candida albicans; assay: Binding affinity to Candida albicans Fructose-1,6-Bisphosphate Aldolase assessed as ratio of kinact/Ki incubated for 12 to 40 mins by NADH-linked enzymatic assay; details: time 12-40 min

substanceSmiles	systemUnderTest	unitLabel	Ratio
O=c1c2ccccc2[se]n1-c1ccc(C(F)(F)F)cc1	Candida albicans	M⁻¹ s⁻¹	15.9
Nc1ccc(-n2[se]c3ccccc3c2=O)cc1	Candida albicans	M⁻¹ s⁻¹	3560
CCCCn1sc2ccccc2c1=O	Candida albicans	M⁻¹ s⁻¹	300
O=c1c2ccccc2[se]n1-c1ccc(-n2cncn2)cc1	Candida albicans	M⁻¹ s⁻¹	10.4

====

Listed here are compounds together with their documented pIC50.
assay: Inhibition of Candida albicans Fructose-1,6-Bisphosphate Aldolase C292S mutant transfected in Escherichia coli BL21 (DE3) incubated for 3 mins in presence of NADH by spectrophotometric analysis
pIC50: −log10 of the molar value.
propertyMeasured: pIC50

substanceSmiles	resultComparator	observedResult
O=c1c2ccccc2[se]n1-c1nncs1	=	5.76
CCCCn1sc2ccccc2c1=O	<	3.30
O=c1c2ccccc2[se]n1-c1ccccc1	=	5.94

====

system: Candida albicans; assay: Inhibition of wild type Candida albicans Fructose-1,6-Bisphosphate Aldolase transfected in Escherichia coli BL21 (DE3) at 50 uM incubated for 3 mins in presence of NADH by spectrophotometric analysis relative to control
Listed here are compounds together with their documented inhibition.
propertyMeasured: inhibition (%)

compound	observedResult
Cn1sc(=O)n(Cc2ccccc2)c1=O	53.7
CCN(CC)C(=S)SSC(=S)N(CC)CC	83
O=C(O)CCCCC1CCSS1 (stereo not drawn)	80

====

tested on: Candida albicans; test: Antifungal activity against Candida albicans SC5314 incubated for 48 hrs by CLSI based broth microdilution method; type: functional

substanceSmiles	resultComparator	MIC80 (µg/mL)
O=c1c2ccccc2[se]n1-c1ccc(F)cc1F	=	4
CCc1ccc(-n2[se]c3ccccc3c2=O)cc1	=	4
O=c1c2ccccc2[se]n1Cc1ccccc1	=	2
CC(C)c1ccc(-n2[se]c3ccccc3c2=O)cc1	=	4
CCCCc1ccc(-n2[se]c3ccccc3c2=O)cc1	=	8
O=C(NCc1ccccc1)n1[se]c2ccccc2c1=O	=	16
O=c1c2ccccc2[se]n1-c1ccccc1	=	2
O=C(c1ccccc1)c1ccc(-n2[se]c3ccccc3c2=O)cc1	=	4
O=C(O)c1ccc(-n2[se]c3ccccc3c2=O)cc1	=	64
O=c1c2ccccc2[se]n1-c1ccc(-n2cncn2)cc1	=	8
O=C(NCc1ccccc1)N1Cc2ccccc2C1=O	>	64
O=C1c2ccccc2CN1c1ccccc1	>	64
O=c1c2ccccc2[se]n1-c1nccs1	=	4
N#Cc1ccc(-n2[se]c3ccccc3c2=O)cc1	=	8
O=c1c2ccccc2[se]n1-c1ccc(-c2ccccc2)cc1	=	32
OC(Cn1cncn1)(Cn1cncn1)c1ccc(F)cc1F	=	0.25
CC(=O)c1ccc(-n2[se]c3ccccc3c2=O)cc1	=	16
CCCCNC(=O)Nc1ccc(-n2[se]c3ccccc3c2=O)cc1	=	8
O=c1c2ccccc2[se]n1-c1ccccn1	=	4
NC(=O)c1ccc(-n2[se]c3ccccc3c2=O)cc1	=	64
COc1ccc(-n2[se]c3ccccc3c2=O)cc1	=	4
Nc1ccc(-n2[se]c3ccccc3c2=O)cc1	=	8
O=c1c2ccccc2[se]n1-c1ccc(C(F)(F)F)cc1	=	4
O=c1c2ccccc2[se]n1-c1cccc(C(F)(F)F)c1	=	4
O=C1c2ccccc2CN1Cc1ccccc1	>	64
O=c1c2ccccc2[se]n1-c1ccc(-n2ccnc2)cc1	=	4
Cc1ccc(-n2[se]c3ccccc3c2=O)cc1	=	4
O=c1c2ccccc2[se]n1-c1ccc(Cl)cc1Cl	=	4
COC(=O)c1ccc(-n2[se]c3ccccc3c2=O)cc1	=	8
O=c1c2ccccc2[se]n1CCc1ccccc1	=	4
